- experimental_target: furin (Homo sapiens, UniProt P09958)
- Sequence (P09958 108-574 limits assumed): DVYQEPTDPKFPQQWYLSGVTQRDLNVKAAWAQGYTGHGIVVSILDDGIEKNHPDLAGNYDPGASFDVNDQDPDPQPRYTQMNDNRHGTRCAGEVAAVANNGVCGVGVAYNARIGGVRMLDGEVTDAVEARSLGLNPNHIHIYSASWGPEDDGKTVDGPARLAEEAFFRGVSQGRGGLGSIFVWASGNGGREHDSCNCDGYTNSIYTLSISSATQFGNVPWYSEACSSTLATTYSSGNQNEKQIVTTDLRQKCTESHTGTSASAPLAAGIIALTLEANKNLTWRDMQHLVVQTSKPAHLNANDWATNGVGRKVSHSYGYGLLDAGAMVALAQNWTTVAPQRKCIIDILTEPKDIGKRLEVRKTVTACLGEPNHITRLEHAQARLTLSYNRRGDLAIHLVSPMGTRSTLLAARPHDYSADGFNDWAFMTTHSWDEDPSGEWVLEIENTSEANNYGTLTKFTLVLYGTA
- method_description: Furin activity / inhibitor screening assay with Boc-R-V-R-R-AMC substrate
- conditions: furin, 40 μM Boc-R-V-R-R-AMC, pH 6.0, 37 °C
reported_metric: pIC50
One number for each entry, as −log10 of the molar value.

-- ask Query (compound): CC1(C)C(C=C(Cl)Cl)C1C(=O)OCc1cccc(Oc2ccccc2)c1 (stereo not shown) ; field requested: pIC50
-- reply 4.41

# credit: paper PMC9959265
